Tested on: Pseudomonas aeruginosa (P. aeruginosa) 27853
assay summary: Antibacterial activity, MIC, P. aeruginosa 27853
Type: cell-based
recorded conditions: Pseudomonas aeruginosa, P. aeruginosa 27853; read-out: MIC 27853
Counter-ions that a name gives are not always drawn.
Some compounds, each annotated with its measured MIC.

{"compound": "CCc1cc(C(=O)O)c(=O)[nH]c1-c1ccc(N2C[C@@H]3[C@H](C2)[C@H]3NCc2ccccc2)cc1 [Cpd 178]", "MIC": "12.5 to 150 µg/mL"}
{"compound": "CCc1c(-c2ccc(N3CC4(CNC4)C3)cc2)[nH]c(=O)c(C(=O)O)c1O [Cpd 324]", "MIC": "12.5 to 150 µg/mL"}
{"compound": "CCc1cc(C(=O)O)c(=O)[nH]c1-c1ccc(N2C[C@@H]3[C@@H](N)[C@@H]3C2)cc1 [Cpd 177]", "MIC": "1 to 3.5 µg/mL"}

// query Can you share its MIC? I mean this compound: CCc1c(-c2ccc(N3C[C@@H]4[C@H](C3)[C@H]4NC)cc2)[nH]c(=O)c(C(=O)O)c1O [Cpd 270, hydrochloride]
// result 1 to 3.5 µg/mL

// query Note, next up: CC(C)c1cc(C(=O)O)c(=O)[nH]c1-c1ccc(N(C)C)cc1 [Cpd 95]
// result 12.5 to 150 µg/mL

// query Note, next up: CCc1c(-c2ccc(O)cc2)[nH]c(=O)c(C(=O)O)c1O [Cpd 334]
// result 12.5 to 150 µg/mL

// query Note, next up: CCNc1ccc(-c2[nH]c(=O)c(C(=O)O)c(O)c2CC)cc1 [Cpd 325]
// result 12.5 to 150 µg/mL

// query Note, next up: CCc1cc(C(=O)O)c(=O)[nH]c1-c1ccc(N2CC[C@@H](F)C2)cc1 [Cpd 154]
// result 12.5 to 150 µg/mL

// query Note, next up: CCc1c(-c2cnc(N(C)C)cn2)[nH]c(=O)c(C(=O)O)c1O [Cpd 312]
// result 12.5 to 150 µg/mL

// query Note, next up: CCc1c(-c2cnc(N3CCCC3)cn2)[nH]c(=O)c(C(=O)O)c1O [Cpd 313]
// result 12.5 to 150 µg/mL

// query Note, next up: CCc1cc(C(=O)O)c(=O)[nH]c1-c1ccc(N2CCC(N(C)C)C2)cc1 (stereo not drawn) [Cpd 149]
// result 12.5 to 150 µg/mL

// query Note, next up: Cc1c(-c2ccc(N(C)C)cc2)[nH]c(=O)c(C(=O)O)c1O [Cpd 5]
// result 12.5 to 150 µg/mL

// query Note, next up: CCc1cc(C(=O)O)c(=O)[nH]c1-c1ccc(N(C)C)c(F)c1 [Cpd 93]
// result 12.5 to 150 µg/mL

* * *

System: super sensitive Gram-negative Escherichia coli (E. coli) BAS849
assay summary: Antibacterial activity, microbroth dilution MIC, E. coli BAS849
Format: cell-based
recorded conditions: Escherichia coli; E. coli BAS849, microbroth dilution; read-out: MIC, BAS849
outcome measure: MIC

Known results for compounds:
{"compound": "CCc1cc(C(=O)O)c(=O)[nH]c1-c1ccc(N2CCC(N(C)C)C2)cc1 (stereo not shown) [Cpd 149]", "MIC": "< 1 µg/mL"}
{"compound": "CCc1c(-c2ccc(N3CC4CCCNC4C3)cc2)[nH]c(=O)c(C(=O)O)c1O.Cl (stereo not shown) [Cpd 272]", "MIC": "< 1 µg/mL"}
{"compound": "CCc1c(-c2ccc(N3CC4(CCN(C)CC4)C3)cc2)[nH]c(=O)c(C(=O)O)c1O [Cpd 319]", "MIC": "< 1 µg/mL"}
{"compound": "CCc1cc(C(=O)O)c(=O)[nH]c1-c1ccc(N(C)C)nc1 [Cpd 86]", "MIC": "1 to 3.5 µg/mL"}
{"compound": "CCc1c(-c2ccc(N3CC[C@@H](O)C3)cc2F)[nH]c(=O)c(C(=O)O)c1O [Cpd 292]", "MIC": "< 1 µg/mL"}

// query Can you share its MIC? I mean this compound: CCc1cc(C(=O)O)c(=O)[nH]c1-c1ccc(N2Cc3cccnc3C2)cc1 [Cpd 192]
// result < 1 µg/mL

// query Note, next up: Cc1c(-c2ccc(N3CCC(N(C)C)C3)nc2)[nH]c(=O)c(C(=O)O)c1O (stereo not shown) [Cpd 337]
// result 12.5 to 150 µg/mL
